Experiment: Microsomal stability in human liver microsomes assessed as compound remaining incubated for 60 mins in presence of NADPH by LC-MS/MS analysis
Assay type: ADME, Microsome
Settings: read-out: Stability
endpointName: remaining at 1 h (%)

[[record]]
moleculesmiles = "COc1ccc(-c2noc(-c3cnc(Oc4ccc5cc(C(=O)N6CCN(Cc7ccc(OCC(F)(F)F)cc7)CC6)n(C)c5c4)cn3)n2)cc1"
quantityunit = "%"
assayresult = 59.5

[[record]]
moleculesmiles = "Cn1c(C(=O)N2CCN(Cc3ccc(OCC(F)(F)F)cc3)CC2)cc2ccc(Oc3cnc(-c4nc(-c5ccc(F)cc5)no4)cn3)cc21"
quantityunit = "%"
assayresult = 57.6


###

Experiment: Volume of distribution at steady state in BALB/c mouse at 1 mg/kg,iv measured upto 24 hrs by LC-MS/MS analysis
Format: ADME, organism-based
Details: BALB/c, in vivo, read-out: Vdss
endpointName: Vd (L/kg)
Supply the numeric figure in L/kg, leaving out any unit text.

Exercise: Param item = COc1ccc(-c2noc(-c3cnc(Oc4ccc5cc(C(=O)N6CCN(Cc7ccc(OCC(F)(F)F)cc7)CC6)n(C)c5c4)cn3)n2)cc1 ; retrieve measured Vd.
Key: 1.27

###

Molecular target: Mitogen-activated protein kinase 13 (Homo sapiens)
Sequence (O15264 whole entry): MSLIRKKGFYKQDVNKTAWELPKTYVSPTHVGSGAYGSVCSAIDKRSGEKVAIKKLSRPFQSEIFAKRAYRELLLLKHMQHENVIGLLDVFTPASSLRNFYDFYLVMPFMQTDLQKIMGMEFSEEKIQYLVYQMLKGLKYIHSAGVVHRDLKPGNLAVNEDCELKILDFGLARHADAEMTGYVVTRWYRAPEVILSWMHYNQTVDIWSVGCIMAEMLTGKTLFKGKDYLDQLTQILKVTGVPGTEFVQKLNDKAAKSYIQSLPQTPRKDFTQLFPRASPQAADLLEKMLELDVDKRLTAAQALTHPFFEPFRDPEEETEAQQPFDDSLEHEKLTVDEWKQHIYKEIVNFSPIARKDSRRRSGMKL
Experiment: Inhibition of p38delta (unknown origin)
endpointName: IC50

Exercise: Which value of IC50 has been reported for COc1ccc(-c2noc(-c3cnc(Oc4ccc5cc(C(=O)N6CCN(Cc7ccc(OCC(F)(F)F)cc7)CC6)n(C)c5c4)cn3)n2)cc1 in the records?
Key: > 10 µM

###

Experiment: MRT (0 to last) in BALB/c mouse at 1 mg/kg,iv measured upto 24 hrs by LC-MS/MS analysis
Assay type: ADME, organism-based
Conditions: BALB/c, in vivo
endpointName: MRT last at 24 h (h)
Give just the number in h; leave the unit off.

Exercise: Look at this molecule and give its reported MRT last at 24 h. COc1ccc(-c2noc(-c3cnc(Oc4ccc5cc(C(=O)N6CCN(Cc7ccc(OCC(F)(F)F)cc7)CC6)n(C)c5c4)cn3)n2)cc1
Key: 8.1

###

Assay: Microsomal stability in dog liver microsomes assessed as compound remaining incubated for 60 mins in presence of NADPH by LC-MS/MS analysis
Format: ADME, Canis lupus familiaris, Microsome
Settings: read-out: Stability
endpointName: remaining at 1 h (%)

[[record]]
moleculesmiles = "COc1ccc(-c2noc(-c3cnc(Oc4ccc5cc(C(=O)N6CCN(Cc7ccc(OCC(F)(F)F)cc7)CC6)n(C)c5c4)cn3)n2)cc1"
endpointname = "remaining at 1 h"
assayresult = 55.8

[[record]]
moleculesmiles = "Cn1c(C(=O)N2CCN(Cc3ccc(OCC(F)(F)F)cc3)CC2)cc2ccc(Oc3cnc(-c4nc(-c5ccc(F)cc5)no4)cn3)cc21"
endpointname = "remaining at 1 h"
assayresult = 50.9


###

Assay: Microsomal stability in dog liver microsomes assessed as intrinsic clearance incubated upto 40 mins in presence of NADPH by LC-MS/MS analysis
Type: ADME, Canis lupus familiaris, Microsome
Details: read-out: CLH
endpointName: microsomal CLint (µL/min/mg)

[[record]]
moleculesmiles = "COc1ccc(-c2noc(-c3cnc(Oc4ccc5cc(C(=O)N6CCN(Cc7ccc(OCC(F)(F)F)cc7)CC6)n(C)c5c4)cn3)n2)cc1"
endpointname = "microsomal CLint"
assayresult = 18.4

[[record]]
moleculesmiles = "Cn1c(C(=O)N2CCN(Cc3ccc(OCC(F)(F)F)cc3)CC2)cc2ccc(Oc3cnc(-c4nc(-c5ccc(F)cc5)no4)cn3)cc21"
endpointname = "microsomal CLint"
assayresult = 21.5


###

Assay: AUC (0-infinity) in BALB/c mouse at 10 mg/kg,po measured upto 24 hrs by LC-MS/MS analysis
Assay type: ADME, organism-based
Design: time < 24 hrs, dose 10 mg/kg, route po
Conditions: in vivo
endpointName: AUC(0-inf) (ng·h/mL)

P: Cn1c(C(=O)N2CCN(Cc3ccc(OCC(F)(F)F)cc3)CC2)cc2ccc(Oc3cnc(-c4nc(-c5ccc(F)cc5)no4)cn3)cc21
Q: COc1ccc(-c2noc(-c3cnc(Oc4ccc5cc(C(=O)N6CCN(Cc7ccc(OCC(F)(F)F)cc7)CC6)n(C)c5c4)cn3)n2)cc1
Exercise: When the recorded AUC(0-inf) values are compared, which is smaller: that of P or that of Q ? # answer = label of selected item
Key: P
(P: 12300 ng·h/mL, Q: 34900 ng·h/mL)

###

Assay: Microsomal stability in human liver microsomes assessed as half life incubated upto 40 mins in presence of NADPH by LC-MS/MS analysis
Format: ADME, Microsome
endpointName: half-life (h)

[[record]]
moleculesmiles = "COc1ccc(-c2noc(-c3cnc(Oc4ccc5cc(C(=O)N6CCN(Cc7ccc(OCC(F)(F)F)cc7)CC6)n(C)c5c4)cn3)n2)cc1"
assayresult = 1.26

[[record]]
moleculesmiles = "Cn1c(C(=O)N2CCN(Cc3ccc(OCC(F)(F)F)cc3)CC2)cc2ccc(Oc3cnc(-c4nc(-c5ccc(F)cc5)no4)cn3)cc21"
assayresult = 1.22


###

Test: AUC (0-24hrs) in BALB/c mouse at 1 mg/kg,iv measured upto 24 hrs by LC-MS/MS analysis
Assay type: ADME, organism-based
Parameters: time < 24 hrs, dose 1 mg/kg, route iv
Settings: in vivo
endpointName: AUC(0-t) at 24 h (ng·h/mL)

[[record]]
moleculesmiles = "Cn1c(C(=O)N2CCN(Cc3ccc(OCC(F)(F)F)cc3)CC2)cc2ccc(Oc3cnc(-c4nc(-c5ccc(F)cc5)no4)cn3)cc21"
assayresult = 8680

[[record]]
moleculesmiles = "COc1ccc(-c2noc(-c3cnc(Oc4ccc5cc(C(=O)N6CCN(Cc7ccc(OCC(F)(F)F)cc7)CC6)n(C)c5c4)cn3)n2)cc1"
assayresult = 9510


###

Assay: MRT (0 to last) in BALB/c mouse at 10 mg/kg,po measured upto 24 hrs by LC-MS/MS analysis
Type: ADME, organism-based
Settings: in vivo
endpointName: MRT last at 24 h (h)

P: COc1ccc(-c2noc(-c3cnc(Oc4ccc5cc(C(=O)N6CCN(Cc7ccc(OCC(F)(F)F)cc7)CC6)n(C)c5c4)cn3)n2)cc1
Q: Cn1c(C(=O)N2CCN(Cc3ccc(OCC(F)(F)F)cc3)CC2)cc2ccc(Oc3cnc(-c4nc(-c5ccc(F)cc5)no4)cn3)cc21
Exercise: Between the entries labeled P and Q , whose measured MRT last at 24 h is lower? Select an item and report its label.
Key: P

###

Target: Signal transducer and activator of transcription 3 (Homo sapiens, UniProt P40763)
Sequence (P40763 whole entry): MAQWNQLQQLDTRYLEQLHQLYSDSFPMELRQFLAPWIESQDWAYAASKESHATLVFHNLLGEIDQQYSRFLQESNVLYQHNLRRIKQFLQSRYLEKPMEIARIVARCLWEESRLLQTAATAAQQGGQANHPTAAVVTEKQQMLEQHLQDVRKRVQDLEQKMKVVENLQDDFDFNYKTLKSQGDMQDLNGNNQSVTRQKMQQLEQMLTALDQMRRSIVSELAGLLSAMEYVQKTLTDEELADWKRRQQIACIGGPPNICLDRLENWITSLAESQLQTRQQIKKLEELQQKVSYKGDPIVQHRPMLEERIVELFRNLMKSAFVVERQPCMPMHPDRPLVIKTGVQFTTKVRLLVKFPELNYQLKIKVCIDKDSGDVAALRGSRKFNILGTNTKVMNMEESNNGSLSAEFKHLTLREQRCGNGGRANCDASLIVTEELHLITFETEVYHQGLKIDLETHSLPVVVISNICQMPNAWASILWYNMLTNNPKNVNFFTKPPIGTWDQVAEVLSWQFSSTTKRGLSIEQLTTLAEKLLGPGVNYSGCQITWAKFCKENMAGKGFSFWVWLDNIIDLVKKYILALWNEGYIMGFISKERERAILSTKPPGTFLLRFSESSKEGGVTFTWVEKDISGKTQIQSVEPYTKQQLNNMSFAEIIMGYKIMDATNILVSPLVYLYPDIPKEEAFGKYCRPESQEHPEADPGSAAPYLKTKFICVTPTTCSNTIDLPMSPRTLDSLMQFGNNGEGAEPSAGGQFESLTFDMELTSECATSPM
Assay: Inhibition of STAT3 in human HEK293T cells assessed as inhibition of IL-6 stimulated STAT3 phosphorylation by dual-luciferase reporter assay
Type: cell-based
pIC50: −log10 of the molar value.
endpointName: pIC50

[[record]]
moleculesmiles = "Cc1ccc(CN2CCN(C(=O)c3cc4ccc(Oc5cnc(-c6nc(-c7ccc(C(F)(F)F)cc7)no6)cn5)cc4n3C)CC2)cc1"
measuredtarget = "Signal transducer and activator of transcription 3 (Homo sapiens, UniProt P40763)"
endpointname = "pIC50"
assayresult = 6.31


A: Cn1c(C(=O)N2CCN(Cc3ccc(OCC(F)(F)F)cc3)CC2)cc2ccc(Oc3cnc(-c4nc(-c5cccc(F)c5)no4)cn3)cc21
B: CCn1c(C(=O)N2CCN(Cc3ccc(OCC(F)(F)F)cc3)CC2)cc2ccc(Oc3cnc(-c4nc(-c5ccc(C(F)(F)F)cc5)no4)cn3)cc21
C: Cn1c(C(=O)N2CCN(Cc3ccc(OCC(F)(F)F)cc3)CC2)cc2ccc(Oc3cnc(-c4nc(-c5ccccc5F)no4)cn3)cc21
D: CCCn1c(C(=O)N2CCN(Cc3ccc(OCC(F)(F)F)cc3)CC2)cc2ccc(Oc3cnc(-c4nc(-c5ccc(C(F)(F)F)cc5)no4)cn3)cc21
Exercise: Order by pIC50, ascending. # answer = labels listed in requested order
Key: D, B, A, C
(D: 6.21, B: 6.78, A: 7.42, C: 7.88)

###

Target: Signal transducer and activator of transcription 3 (Homo sapiens, UniProt P40763)
Assay: Inhibition of STAT3 in human HEK293T cells assessed as inhibition of IL-6 stimulated STAT3 phosphorylation by dual-luciferase reporter assay
pIC50: −log10 of the molar value.
endpointName: pIC50

[[record]]
moleculesmiles = "COC(=O)CN1CCN(C(=O)c2cc3ccc(Oc4cnc(-c5nc(-c6ccc(C(F)(F)F)cc6)no5)cn4)cc3n2C)CC1"
endpointname = "pIC50"
assayresult = "< 6.00"

[[record]]
moleculesmiles = "Cn1c(C(=O)N2CCN(C(=O)c3ccc(C(F)(F)F)cc3)CC2)cc2ccc(Oc3cnc(-c4nc(-c5ccc(C(F)(F)F)cc5)no4)cn3)cc21"
endpointname = "pIC50"
assayresult = "< 6.00"


Exercise: Query (compound): C=CCn1c(C(=O)N2CCN(Cc3ccc(OCC(F)(F)F)cc3)CC2)cc2ccc(Oc3cnc(-c4nc(-c5ccc(C(F)(F)F)cc5)no4)cn3)cc21 ; field requested: pIC50
Key: < 6.00
